Assay: recombinant barcode read abundance after kanamycin selection (control-corrected) (log10(CPM+1)); higher = more efficient recombination; sequences stand for … in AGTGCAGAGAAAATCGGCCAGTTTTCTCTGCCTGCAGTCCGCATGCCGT…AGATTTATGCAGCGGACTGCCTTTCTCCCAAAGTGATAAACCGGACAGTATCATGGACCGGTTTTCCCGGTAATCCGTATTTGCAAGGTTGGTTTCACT; site = the 11-nt target;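 also: IS621 recombinase and bridge RNA in Escherichia coli cells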
Threshold check on recombinant barcode read abundance (log10): at or above 0.2 gives Satisfied, strictly below gives Not satisfied.

Worked set:
# residues, answer_label
rows = [
    ("GTCGCTACTTGGGTTCTAACCTGTTGCCG (site GTCACTACTCG)", "Not satisfied"),
    ("CTACCACCTTGGGTTCTAACCTGTTGCCT (site CTACCAACTAG)", "Not satisfied"),
    ("CCTAAGCCTTGGGTTCTAACCTGTTGCGT (site CCTAAGCCTAC)", "Satisfied"),
    ("GTATGTACTTGGGTTCTAACCTGTTGCAT (site GTATGTACTAT)", "Satisfied"),
]

Note: attention shifts to another entry.
Item TGGCGCTCTTGGGTTCTAACCTGTTGCCT (site TGTCGCTCTAG) with recombinant barcode read abundance (log10) of 0.2 or above?
Not satisfied

Where these numbers come from: the supplement of paper PMC11208160
